Exercise: for every item that follows, state its recorded LC retention time.
test: Waters Atlantis T3, 100 × 2.1 mm, 3 µm, 0.1 mL/min, estimated dead time 2.2 min; A: water + 0.01% formic acid; B: methanol; gradient (min/%B) 0/2 3/2 20/100 29/100; details: stereoisomer not certain
Answers are plain numbers, in min.

compound="CNC(C)Cc1ccc2c(c1)OCO2 (stereo unspecified)" experimental_value=17.4

Provide LC retention time for all items below, preserving their order.
1. CN(C)C1C(=O)C(C(N)=O)=C(O)C2(O)C(=O)C3=C(O)c4c(O)cccc4C(C)(O)C3C(O)C12 (stereo unspecified)
2. CC(=O)OC1C=CC2C3Cc4ccc(O)c5c4C2(CCN3C)C1O5 (stereo unspecified)
3. CCNC(C)Cc1ccc2c(c1)OCO2 (stereo unspecified)
4. CNCCC=C1c2ccccc2CCc2ccccc21
5. O=C1CN=C(c2ccccc2)c2cc([N+](=O)[O-])ccc2N1
6. COc1ccc(NS(=O)(=O)c2ccc(N)cc2)nn1

# output
15.1
13
14.1
19.1
20.4
16

Provide LC retention time for all items below, preserving their order.
1. CCN(C)C(=O)Oc1cccc(C(C)N(C)C)c1 (stereo unspecified)
2. COC(=O)C1C(OC(=O)c2ccccc2)CC2CCC1N2C (stereo unspecified)
3. CC(N)Cc1ccccc1 (stereo unspecified)
4. CC1(C)SC2C(NC(=O)C(N)c3ccc(O)cc3)C(=O)N2C1C(=O)O (stereo unspecified)

# output
[14.8, 14.9, 13.3, 28.1]

====

Exercise: for every item that follows, state its recorded LC retention time.
assay: Waters Atlantis T3, 100 × 2.1 mm, 3 µm, 0.1 mL/min, estimated dead time 2.2 min; A: water + 0.01% formic acid; B: methanol; gradient (min/%B) 0/2 3/2 20/100 29/100; details: stereoisomer not certain
Your reply should be a number followed by the unit it is expressed in.

Some entries whose results are on file:
molecule=COc1cc(Cc2cnc(N)nc2N)cc(OC)c1OC experimental_value="13.5 min"
molecule="CNCCC(Oc1cccc2ccccc12)c1cccs1 (stereo not drawn)" experimental_value="18.7 min"
molecule="CNC(C)Cc1ccccc1 (stereo not drawn)" experimental_value="13.5 min"
molecule="CCN1CCCC1CNC(=O)c1cc(S(N)(=O)=O)ccc1OC (stereo not drawn)" experimental_value="11.6 min"
molecule="COCCc1ccc(OCC(O)CNC(C)C)cc1 (stereo not drawn)" experimental_value="15 min"
molecule=Cn1c(=O)c2[nH]cnc2n(C)c1=O experimental_value="14.3 min"
molecule=CC(=O)Nc1ccc(O)cc1 experimental_value="13.1 min"
molecule="CCC(C(N)=O)N1CCCC1=O (stereo not drawn)" experimental_value="13.6 min"

Provide LC retention time for all items below, preserving their order.
1. CNC(=C[N+](=O)[O-])NCCSCc1ccc(CN(C)C)o1
2. NCC1(CC(=O)O)CCCCC1
3. Cc1cc(C)nc(NS(=O)(=O)c2ccc(N)cc2)n1
4. Cc1cc2c(s1)Nc1ccccc1N=C2N1CCN(C)CC1
5. CCN(CC)C(=O)C1C=C2c3cccc4[nH]cc(c34)CC2N(C)C1 (stereo not drawn)

# output
1: 11.8 min; 2: 13.3 min; 3: 15 min; 4: 20.4 min; 5: 15.8 min

====

test: Waters Atlantis T3, 100 × 2.1 mm, 3 µm, 0.1 mL/min, estimated dead time 2.2 min; A: water + 0.01% formic acid; B: methanol; gradient (min/%B) 0/2 3/2 20/100 29/100; details: stereoisomer not certain
ENDPOINT_LABEL: LC retention time (min)
One number for each entry, in min.

Some entries whose results are on file:
compound=Cc1noc(NS(=O)(=O)c2ccc(N)cc2)c1C unit_name=min experimental_value=14.5
compound="CC1c2cccc(O)c2C(O)=C2C(=O)C3(O)C(O)=C(C(N)=O)C(=O)C(N(C)C)C3C(O)C21 (stereo unspecified)" unit_name=min experimental_value=17.7
compound="CC(=O)C1CCC2C3CCC4=CC(=O)CCC4(C)C3CCC12C (stereo unspecified)" unit_name=min experimental_value=24.7
compound="CC(C)NCC(O)COc1cccc2ccccc12 (stereo unspecified)" unit_name=min experimental_value=17.1
compound="CC(N)Cc1ccc2c(c1)OCO2 (stereo unspecified)" unit_name=min experimental_value=13.6

# input Any idea what its LC retention time is? The compound is CC1=C(C(=O)O)N2C(=O)C(NC(=O)C(N)c3ccccc3)C2SC1 (stereo unspecified)
# output 14.3

====

assay: Waters Atlantis T3, 100 × 2.1 mm, 3 µm, 0.1 mL/min, estimated dead time 2.2 min; A: water + 0.01% formic acid; B: methanol; gradient (min/%B) 0/2 3/2 20/100 29/100; details: stereoisomer not certain
ENDPOINT_LABEL: LC retention time

Some entries whose results are on file:
molecule=Cn1c(=O)c2c(ncn2C)n(C)c1=O endpoint_label="LC retention time" experimental_value="15.2 min"
molecule=NC(N)=NS(=O)(=O)c1ccc(N)cc1 endpoint_label="LC retention time" experimental_value="7.11 min"
molecule="CC(=O)Oc1ccc2c3c1OC1C(OC(C)=O)C=CC4C(C2)N(C)CCC341 (configuration not stated)" endpoint_label="LC retention time" experimental_value="14.7 min"
molecule="CCN1CCCC1CNC(=O)c1cc(S(=O)(=O)CC)c(N)cc1OC (configuration not stated)" endpoint_label="LC retention time" experimental_value="13.4 min"

Provide LC retention time for all items below, preserving their order.
1. NC(=O)N1c2ccccc2C=Cc2ccccc21
2. CN1CCN2c3ncccc3Cc3ccccc3C2C1 (configuration not stated)
3. CC(C)NCC(O)COc1ccc(CC(N)=O)cc1 (configuration not stated)
4. c1ccc2c(c1)Cc1cccnc1N1CCNCC21 (configuration not stated)
5. C=CC1(C)CC(OC(=O)CSCCN(CC)CC)C2(C)C(C)CCC3(CCC(=O)C32)C(C)C1O (configuration not stated)
6. Cc1ncc([N+](=O)[O-])n1CCO
7. Cc1cc(NS(=O)(=O)c2ccc(N)cc2)no1

# output
1: 20.1 min; 2: 15.5 min; 3: 11.7 min; 4: 15.7 min; 5: 18.1 min; 6: 13.2 min; 7: 15.7 min

Provide LC retention time for all items below, preserving their order.
1. CCC1OC(=O)CC(O)C(C)C(OC2OC(C)C(OC3CC(C)(O)C(O)C(C)O3)C(N(C)C)C2O)C(CC=O)CC(C)C(=O)C=CC(C)=CC1COC1OC(C)C(O)C(OC)C1OC (configuration not stated)
2. NC(=O)N1c2ccccc2CC(=O)c2ccccc21
3. Nc1ccc(S(=O)(=O)Nc2nccs2)cc1
4. COCC(NC(C)=O)C(=O)NCc1ccccc1 (configuration not stated)
5. CN1CCN2c3ncc(O)cc3Cc3ccccc3C2C1 (configuration not stated)
6. CCC1OC(=O)C(C)C(OC2CC(C)(OC)C(O)C(C)O2)C(C)C(OC2OC(C)CC(N(C)C)C2O)C(C)(O)CC(C)C(=O)C(C)C(O)C1(C)O (configuration not stated)
7. CN(C)C1C(=O)C(C(N)=O)=C(O)C2(O)C(=O)C3=C(O)c4c(O)cccc4C(C)(O)C3CC12 (configuration not stated)
8. CCN(CC)CC(=O)Nc1c(C)cccc1C

# output
18.3 min
18.8 min
13.5 min
16.8 min
14.4 min
18.5 min
14.8 min
14.2 min

Provide LC retention time for all items below, preserving their order.
1. Cn1c([N+](=O)[O-])cnc1COC(N)=O
2. CCC(C)(C)C(=O)OC1CC(C)C=C2C=CC(C)C(CCC3CC(O)CC(=O)O3)C21 (configuration not stated)
3. CN(C)CCCN1c2ccccc2CCc2ccccc21

# output
1: 13.1 min; 2: 27 min; 3: 18.6 min

====

Exercise: for every item that follows, state its recorded LC retention time.
test: Waters Atlantis T3, 100 × 2.1 mm, 3 µm, 0.1 mL/min, estimated dead time 2.2 min; A: water + 0.01% formic acid; B: methanol; gradient (min/%B) 0/2 3/2 20/100 29/100; details: stereoisomer not certain
Answers are plain numbers, in min.

compound="COc1ccc2c3c1OC1C(O)C=CC4C(C2)N(C)CCC341 (stereo not drawn)" experimental_value=12.2

Provide LC retention time for all items below, preserving their order.
1. CCCCC(=O)N(Cc1ccc(-c2ccccc2-c2nn[nH]n2)cc1)C(C(=O)O)C(C)C (stereo not drawn)
2. CNCC(c1ccc(OC)cc1)C1(O)CCCCC1 (stereo not drawn)
3. COc1cc(NS(=O)(=O)c2ccc(N)cc2)nc(OC)n1
4. CN1C2CCC1C(C(=O)O)C(OC(=O)c1ccccc1)C2 (stereo not drawn)
5. Cc1nnc(NS(=O)(=O)c2ccc(N)cc2)s1

# output
1. 23.2
2. 14.8
3. 17.5
4. 15.7
5. 14.8

====

Exercise: for every item that follows, state its recorded LC retention time.
assay: Waters Atlantis T3, 100 × 2.1 mm, 3 µm, 0.1 mL/min, estimated dead time 2.2 min; A: water + 0.01% formic acid; B: methanol; gradient (min/%B) 0/2 3/2 20/100 29/100; conditions: stereoisomer not certain
Give bare numbers, in min.

Some entries whose results are on file:
compound="CNC(C)C(O)c1ccccc1 (stereo not given)" experimental_value=12.4
compound="CCC1OC(=O)C(C)C(OC2CC(C)(OC)C(O)C(C)O2)C(C)C(OC2OC(C)CC(N(C)C)C2O)C(C)(O)CC(C)CN(C)C(C)C(O)C1(C)O (stereo not given)" experimental_value=17.4
compound=COc1ncnc(NS(=O)(=O)c2ccc(N)cc2)c1OC experimental_value=16

Provide LC retention time for all items below, preserving their order.
1. Cc1ccnc(NS(=O)(=O)c2ccc(N)cc2)n1
2. Cc1ccc(-c2nc3ccc(C)cn3c2CC(=O)N(C)C)cc1
3. CN(C)CCC=C1c2ccccc2CCc2ccccc21
4. CC=C1N(C)C(C)CC1(c1ccccc1)c1ccccc1 (stereo not given)

# output
[14.2, 15.5, 18.9, 16.9]
